Kindly supply the reported EC50 hGlucagon-R (cAMP formation) values for the records listed here.
ASSAY_SYSTEM: human glucagon receptor (human, UniProt P47871 26-477)
Sequence (P47871 26-477): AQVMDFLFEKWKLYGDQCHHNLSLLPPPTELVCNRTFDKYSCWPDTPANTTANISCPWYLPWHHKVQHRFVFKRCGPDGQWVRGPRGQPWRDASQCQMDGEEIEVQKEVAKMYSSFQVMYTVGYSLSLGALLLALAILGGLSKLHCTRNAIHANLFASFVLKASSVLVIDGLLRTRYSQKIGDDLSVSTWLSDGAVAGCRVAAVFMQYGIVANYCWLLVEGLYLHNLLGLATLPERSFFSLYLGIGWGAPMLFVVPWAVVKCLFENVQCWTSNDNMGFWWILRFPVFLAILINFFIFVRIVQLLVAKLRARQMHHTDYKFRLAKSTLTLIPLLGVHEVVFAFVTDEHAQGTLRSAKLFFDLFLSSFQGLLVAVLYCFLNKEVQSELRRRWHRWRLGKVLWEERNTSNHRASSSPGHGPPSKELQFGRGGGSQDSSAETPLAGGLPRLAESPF
METHOD_DESCRIPTION: cell-based or functional assay
Numbered stars: 1 amine (or outer) side, 2 acyl side, 3 side chain; on linkers, the order of the positions; unused ones are H or OH. Square brackets hold non-standard residues; d marks the D form. Side chains are listed from the residue outwards. Ends that are not written are not given here. * marks the point of attachment. γGlu = O=C(O)[C@H](CCC(=O)[*:2])N[*:1]; Stearoyl = CCCCCCCCCCCCCCCCCC(=O)*; Palmitoyl = CCCCCCCCCCCCCCCC(=O)*; Aib = CC(C)(N)C(=O)O
Hi! Could you send only the number? It should be in nM, unit omitted.

Bench note: what EC50 hGlucagon-R (cAMP formation) did H[Aib]HGTFTSDLSKQK([γGlu-Palmitoyl])EEEAVRLFIEWLKAGGPSSGAPPPS-NH2 [SEQ ID NO: 12] show?
0.0128

Bench note: what EC50 hGlucagon-R (cAMP formation) did HXHGTFTSDLSKQKDEEAVRLFIEWLKAGGPSSGAPPPS (Aib at position 2; Lys 14 side-chain NH2 acylated with γE-x70 = (S)-4-Carboxy-4-octadecanoylamino-butyryl-; C-terminal amide (NH2)) [SEQ ID NO: 8] show?
0.0245

Bench note: what EC50 hGlucagon-R (cAMP formation) did HSHGTFTSDLSKQK([γGlu-Stearoyl])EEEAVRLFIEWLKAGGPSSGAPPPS-NH2 [SEQ ID NO: 10] show?
0.0069

Bench note: what EC50 hGlucagon-R (cAMP formation) did H[dS]HGTFTSDLSKQK([γGlu-Palmitoyl])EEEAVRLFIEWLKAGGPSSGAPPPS-NH2 [SEQ ID NO: 14] show?
0.0584

Bench note: what EC50 hGlucagon-R (cAMP formation) did H[Aib]HGTFTSDLSKQK([γGlu-γGlu-Palmitoyl])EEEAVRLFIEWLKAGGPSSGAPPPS-NH2 [SEQ ID NO: 11] show?
0.0089
